Hey, just so you know, these numbers are from the supplement of paper PMC7125110.

B1: glmS ribozyme (parent)
chain: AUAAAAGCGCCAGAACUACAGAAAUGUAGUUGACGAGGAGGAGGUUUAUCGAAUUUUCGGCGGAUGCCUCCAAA

Variants of: B1
procedure.text: self-cleavage kobs at 2500 uM GlcN6P; higher = faster cleavage; RNA array
assay.conditions: with glucosamine-6-phosphate
This sample holds only a part of the variants without activity.
assay.readout: self-cleavage kobs at 2500 uM GlcN6P

Here's what some known entries look like.
| record.sequence | self-cleavage kobs at 2500 uM GlcN6P |
| --- | --- |
| AUAAAAGCGCCAGAACUACAGAAAUGUAGUUGACGAGGAGGAGGUUCAACGAAUUUUCGGCGGAUGCCUCCAAA | < 1e-05 s⁻¹ |
| AUAAAAGCGCCAGAACUACAGAAAUGUAGUGGACGAGGAGGAGGUUCAUCGAAUUUUCGGCGGAUGCCUCCAAA | 0.000501 s⁻¹ |
| AUAAAAGCGACAGAACUACAGAAAUGUAGUUGACGUGGAGGAGGUUUAUCGAAUUUUCGGCGGAUGCCUCCAAA | < 1e-05 s⁻¹ |
| AUAAAAGCGCCAGAACUACAGAAAUGUAGUAGACGAGGAGGAGGUUUAUCGAAUUCUCGGCGGAUGCCUCCAAA | 0.00115 s⁻¹ |
| AUAAAAGCGCCAGAACUACAGAAAUGUAAUUGACUAGGAGGAGGUUUAUCGAAUUUUCGGCGGAUGCCUCCAAA | < 1e-05 s⁻¹ |
| AUAAAAGCGCCAGAACUACAGAAAUGUAGUGGACUAGGAGGAGGUUUAUCGAAUUUUCGGCGGAUGCCUCCAAA | < 1e-05 s⁻¹ |
| AUAAAAGCGCCAUAACUACAGAAAUGUAGUUUAAUAGGAGGAGGUUUAUCGAAUUUUCGGCGGAUGCCUCCAAA | < 1e-05 s⁻¹ |
| AUAAAAGCGCCAGAACUACAGAAAUGUAGUUGACGAGGAGGAGGUCUAUCGAAGUUUCGGCGGAUGCCUCCAAA | 0.00284 s⁻¹ |
| AUAAAAGCGCCUGAACUACAGAAAUGUAGUUGACGAGGAGGAGGUUUAUCAAAUUUUCGUCGGAUGCCUCCAAA | < 1e-05 s⁻¹ |
| AUAAAAGCUCCAGAACUACAGAAAUGUAGUUGACGAGGAGGAGGUUUUUCGAAUUUACGGCGGAUGCCUCCAAA | < 1e-05 s⁻¹ |

Alright, here's another variant for you.
What value of measured self-cleavage kobs at 2500 uM GlcN6P is listed for AUAAAAGCGCCAGAACUACAGAAAUGUAGUUGACGAGGAGGAGGUUUAGCGAAUUUUCGGUGGAUGCCUCAAAA ?
< 1e-05 s⁻¹
